target: PqsR (Pseudomonas aeruginosa, UniProt Q9I4X0); experiment: E. coli based β-galactosidase reporter gene assay (PqsR inverse agonistic activity); format: cell-based; parameters: expressed in transfected cells; host or cells: Escherichia coli DH5α
Sequence (Q9I4X0 whole entry): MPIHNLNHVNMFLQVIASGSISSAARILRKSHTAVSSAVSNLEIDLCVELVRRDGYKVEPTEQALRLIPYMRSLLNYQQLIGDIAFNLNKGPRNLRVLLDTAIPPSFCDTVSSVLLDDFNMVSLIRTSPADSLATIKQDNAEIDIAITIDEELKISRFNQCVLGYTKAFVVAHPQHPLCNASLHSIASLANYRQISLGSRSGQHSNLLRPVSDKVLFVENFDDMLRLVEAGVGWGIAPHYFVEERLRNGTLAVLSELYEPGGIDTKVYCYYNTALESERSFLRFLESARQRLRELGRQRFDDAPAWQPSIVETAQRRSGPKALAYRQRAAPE
pIC50: −log10 of the molar value.
# pIC50 per record follows

{"columns": ["MOL", "VAL"],
 "data": [
  ["Fc1ccc(-n2cc(CNc3ccnc(C(F)(F)F)c3)nn2)cc1F", "6.60 to 7.29"],
  ["O=C(c1ccccc1)c1ccc(-n2cc(CNc3ccnc(C(F)(F)F)c3)nn2)cc1", "≥ 7.30"]
]}

input: Return reported pIC50; argument: `Fc1ncccc1Oc1ccc(-n2cc(CNc3cc(Cl)nc(C(F)(F)F)c3)nn2)cc1`
output: ≥ 7.30

input: Entry `COc1ncc(-c2ccc(CSc3ccnc(C(F)(F)F)c3)nc2)cc1Cl` : reported pIC50 = ?
output: 6.00 to 6.60

input: Which pIC50 value belongs to `FC(F)(F)c1nccc(SCc2cn(-c3ccc(Oc4ccccc4)cc3)nn2)n1` ?
output: ≥ 7.30

input: Name the reported pIC50 value associated with the compound `FC(F)(F)c1cc(OCc2nc3ccc(Oc4ccccc4)cc3o2)ccn1`
output: 6.00 to 6.60

input: Which pIC50 is listed for `Clc1cc(NCc2cn(-c3ccc(Oc4ccccc4)cc3)nn2)cc(Cl)n1` ?
output: ≥ 7.30

input: # pIC50 lookup, item `FC(F)(F)c1cc(NCc2cn(-c3ccc(Nc4ccccc4)cc3)nn2)ccn1`
output: ≥ 7.30

input: Reported pIC50 for `N#Cc1cc(NCc2cnc(-c3ccc(Oc4ccccc4)cc3)s2)ccn1` : what is it?
output: ≥ 7.30

input: Item under review: `FC(F)(F)c1cc(SCc2cn(-c3ccc(Cl)c(Cl)c3)nn2)ccn1` . Reported pIC50?
output: 6.60 to 7.29

input: # input compound: `COc1ccc(-n2cc(CNc3ccnc(C(F)(F)F)c3)nn2)cc1F` ; wanted: its pIC50
output: ≥ 7.30
